Where do the numbers come from? From PubChem BioAssay (NCI).

tested on: M14 melanoma; assay: NCI-60 one-dose screen, 48 h (100 = growth as untreated, 0 = no growth, -100 = all killed); details: 10 µM unless noted
The panel holds about 83,000 compounds, 20% with a hit somewhere; the sample as a whole holds those more often.
Consider the following partition of reported growth into named classes: category 1 (below 20%), category 2 (20% to below 70%), category 3 (70% or more)

[
  {
    "compound": "Cn1cc(-c2cc3nc(-c4c[nH]c5ccc(Cl)cc45)cc(N)n3n2)c2ccccc21",
    "target under test": "M14 melanoma",
    "category": "category 1"
  },
  {
    "compound": "CCCCSc1nc(Nc2ccc(S(N)(=O)=O)cc2)c(C#N)c(-c2ccc(Cl)cc2)n1",
    "target under test": "M14 melanoma",
    "category": "category 1"
  },
  {
    "compound": "COc1cc(-c2nc3ccc(C)cc3[nH]2)ccc1OCc1nnc(-c2ccc(Br)cc2)o1",
    "target under test": "M14 melanoma",
    "category": "category 2"
  },
  {
    "compound": "CC1(C)CC[C@]2(C(=O)O)CC[C@]3(C)C(=CCC4[C@@]5(C)C[C@@H](O)[C@@H]6OC(c7ccco7)OC[C@@]6(C)C5CC[C@]43C)C2C1 (some centres undefined)",
    "target under test": "M14 melanoma",
    "category": "category 2"
  },
  {
    "compound": "COc1ccc(/C=N/NC(=O)Cn2nc(Cc3ccc(OC)cc3)c3onc(C)c3c2=O)cc1",
    "target under test": "M14 melanoma",
    "category": "category 2"
  },
  {
    "compound": "COc1ccc([C@H](C)Nc2nc(Cl)nc3ccccc23)cc1",
    "target under test": "M14 melanoma",
    "category": "category 3"
  },
  {
    "compound": "COc1ccc(C2CC(c3ccc(S(=O)(=O)NCCNc4nc(Nc5ccc(F)cc5)nc(N(C)C)n4)cc3)=Nc3c(N)nc(N)nc3N2)cc1 (centres undefined)",
    "target under test": "M14 melanoma",
    "category": "category 3"
  }
]

====

system: MDA-MB-435 melanoma; assay: NCI-60 one-dose screen, 48 h; conditions: 10 µM unless noted
This is part of a sample that, as a whole, favours compounds with a hit. Of some 83,000 tested, about 20% had one in any assay. Active and inactive are the calls of the source. The calls were made as follows: active = growth percent below 10; inactive = the rest.
Possible outcomes: active, inactive

[
  {
    "compound": "COc1ccc(C(=O)/C=C/c2ccc(OCc3ccccc3)c(OC)c2)cc1OC",
    "category": "inactive"
  },
  {
    "compound": "COc1ccccc1/C=C/C(=O)c1ccc(OC)c(S(N)(=O)=O)c1",
    "category": "inactive"
  },
  {
    "compound": "COc1ccc(C(=O)/C=C/c2cccc(Cl)c2)cc1S(N)(=O)=O",
    "category": "inactive"
  },
  {
    "compound": "Cc1cccc(NC(=O)CN2CCN(c3ncnc4c3cnn4-c3ccccc3)CC2)c1",
    "category": "inactive"
  },
  {
    "compound": "CCN1C(=O)N(CC)C2NNC(Sc3c(C(=O)O)c4ccccc4n(C4CCCC4)c3=O)=NC21 (stereo not given)",
    "category": "active"
  }
]

====

tested on: UO-31 renal; assay: NCI-60 one-dose screen, 48 h (100 = growth as untreated, 0 = no growth, -100 = all killed); details: 10 µM unless noted
About 83,000 compounds went through this panel and 20% of them were active in at least one assay; those are over-represented in the sample as a whole.
Rule: Y for growth not less than 40%, N for anything less.

[
  {
    "compound": "Cc1cc2nc3c([nH]c2cc1C)c1ccc(=O)cc1n3CCN(C)C",
    "category": "N"
  },
  {
    "compound": "NS(=O)(=O)c1ccc(N=Nc2c(O)n(CC(=O)Nc3ccccc3Cl)c3ccccc23)cc1",
    "category": "N"
  },
  {
    "compound": "C=C1CCC2C3(C)COC(c4ccccc4F)OC3CCC2(C)C1CC(O)C1=CCOC1=O (configuration not stated)",
    "category": "N"
  },
  {
    "compound": "CN(C)c1nc(NCCNS(=O)(=O)c2ccc(C(=O)/C=C/c3ccc(C(F)(F)F)cc3)cc2)nc(Nc2ccc(F)cc2)n1",
    "category": "N"
  },
  {
    "compound": "Cn1cc(-c2cc(N)n3nc(-c4cn(C)c5ncccc45)cc3n2)c2cccnc21",
    "category": "Y"
  },
  {
    "compound": "Brc1ccc(-c2n(Cc3ccc4ccccc4c3)c(-c3ccccc3)c(-c3ccccc3)[n+]2Cc2ccc3ccccc3c2)cc1",
    "category": "N"
  },
  {
    "compound": "Nc1nc(C(F)(F)F)cs1",
    "category": "Y"
  },
  {
    "compound": "Cc1ccccc1[C@H]1C(C(=O)c2ccc(Cl)cc2)C2(N[C@@H]1c1ccccc1)C(=O)Nc1ccccc12 (some centres not stated)",
    "category": "N"
  },
  {
    "compound": "COc1ccc([C@H](C)Nc2nc(Cl)nc3ccccc23)cc1",
    "category": "Y"
  },
  {
    "compound": "COc1ccc2oc3c4[nH]c5ccccc5c4c4c(c3c2c1)C(=O)N(C(=O)OC(C)(C)C)C4=O",
    "category": "N"
  },
  {
    "compound": "CCOc1ccc(-c2c(C#N)c(-c3ccc(Cl)cc3)nc3n[nH]c(-c4ccc(Cl)cc4)c23)cc1OC",
    "category": "N"
  },
  {
    "compound": "CC(C)CSc1nc(NCCc2c[nH]c3ccccc23)c(C#N)c(-c2ccccc2)n1",
    "category": "Y"
  },
  {
    "compound": "CCOC(=O)C1=C(N)N(c2ccccc2)C2=C(C(=O)CC(C)(C)C2)C1c1ccc(Cl)cc1Cl (configuration not stated)",
    "category": "N"
  },
  {
    "compound": "COc1ccc(C(=O)/C=C/c2cccc3ccccc23)cc1S(N)(=O)=O",
    "category": "N"
  },
  {
    "compound": "C=C1CCC2C3(C)COC(c4ccccc4)OC3CCC2(C)C1CC(Sc1ccccc1)C1=CCOC1=O (configuration not stated)",
    "category": "Y"
  },
  {
    "compound": "C#C[C@]1(O)CC[C@H]2[C@@H]3CC=C4c5sc(-c6ccc([N+](=O)[O-])cc6)nc5CC[C@]4(C)[C@H]3CC[C@@]21C",
    "category": "N"
  },
  {
    "compound": "CCN(CC)c1ccnc(CNCCSC(c2ccccc2)(c2ccccc2)c2ccc(C)cc2)c1",
    "category": "N"
  },
  {
    "compound": "O=C(O)c1cccc(-c2ccc(/C=N/NC(=O)c3[nH]c4ccc(Br)cc4c3-c3ccccc3)o2)c1",
    "category": "Y"
  },
  {
    "compound": "CC(=O)Nc1cccc(Nc2nc(NCc3ccccc3)c3ccccc3n2)c1",
    "category": "N"
  },
  {
    "compound": "C#CCOc1ccc(/C=N/Nc2nc(-c3cc4cc(OC)ccc4oc3=O)cs2)cc1OC",
    "category": "Y"
  },
  {
    "compound": "CN(C)c1ccnc(CNCCSC2(c3ccccc3)c3ccccc3C=Cc3ccccc32)c1",
    "category": "N"
  },
  {
    "compound": "CC(C)CCNC(=O)N/C(N)=N/c1nc2ccccc2s1",
    "category": "Y"
  },
  {
    "compound": "Cc1cc(N=C2NC(=O)CS2)n[nH]1",
    "category": "Y"
  },
  {
    "compound": "COc1c(F)ccc(C(=O)Nc2ccc3nc(NC(=O)C4CCCN(S(=O)(=O)c5ccc(C#N)cc5)C4)sc3c2)c1F (configuration not stated)",
    "category": "Y"
  },
  {
    "compound": "Cc1cccc(NC(=O)[C@]23CCC(C)(C)CC2C2=CCC4[C@@]5(C)C[C@@H](O)[C@H](O)[C@@](C)(CO)C5CC[C@@]4(C)[C@]2(C)CC3)c1 (some centres not stated)",
    "category": "N"
  },
  {
    "compound": "Cc1cc(=O)oc2cc(OCCCCOc3ccc(/C=C/C(=O)Nc4ccccc4N)cc3)ccc12",
    "category": "N"
  },
  {
    "compound": "COc1ccc(-c2ccnc(SCc3cc4cc(Cl)ccc4[nH]c3=O)n2)cc1",
    "category": "Y"
  },
  {
    "compound": "COc1ccc2[nH]c(=O)c(CSc3nccc(-c4ccc(OC)c(OC)c4)n3)cc2c1",
    "category": "N"
  },
  {
    "compound": "C=CC[N+](C)(C)CCn1c2ccccc2c2nc3cc(C)c(C)cc3nc21",
    "category": "Y"
  },
  {
    "compound": "CC(C)c1sc(NC(=O)c2cc(NC(=O)c3cc(NC(=O)c4nccn4C)cn3C)cn2C)nc1C(=O)NCCCN(C)C",
    "category": "Y"
  },
  {
    "compound": "C[C@H]1CN(C(=O)c2ccc3c(NNC(=O)c4ccncn4)nc4cc(F)c(F)cc4n23)CCN1",
    "category": "N"
  },
  {
    "compound": "CCCS(=O)(=O)N1CCCC(C(=O)Nc2nc3ccc(NC(=O)c4ccc(F)c(OC)c4F)cc3s2)C1 (configuration not stated)",
    "category": "N"
  },
  {
    "compound": "NS(=O)(=O)c1ccc(N=Nc2c(O)n(CC(=O)Nc3ccccc3)c3ccccc23)cc1",
    "category": "N"
  },
  {
    "compound": "CCCSc1nc(NCCc2c[nH]c3ccccc23)c(C#N)c(-c2ccc(OC)cc2)n1",
    "category": "Y"
  },
  {
    "compound": "O=C1C(=Nc2ccc(F)c(Cl)c2)c2cccc3cccc1c23",
    "category": "N"
  },
  {
    "compound": "O=C(N=Nc1c(O)[nH]c2ccc(Cl)cc12)c1ccc2nc(-c3ccccc3)[nH]c2c1",
    "category": "Y"
  },
  {
    "compound": "CN1CCN(c2ccc3c(c2)nc(NNC(=O)c2cnccn2)c2cccn23)CC1",
    "category": "N"
  }
]
